Target: human alpha-synuclein (human, UniProt P37840 1-140)
Test: SPR Biacore 3000, IgG captured by anti-human IgG on CM5 chip
result-type: pKd
Answers are plain numbers, as −log10 of the molar value.

[
  {
    "binder": "9C12 (antibody, V domains shown) VH: QVQLVQSGAEVKKPGASVKVSCKASGYTFTSYWMHWMRQAPGQGLEWIGRIDPNSGTTKYNVNIKTRATLTVDKSTSTAYMELSSLRSEDTAVYYCARLGHYGNLYAMDYWGQGTLVT VL: EIVLTQSPATLSLSPGERATLSCSASSSVSYMHWYQQKPGQAPRRLIYDTSKLASGVPARFSGSGSGTDYTLTISSLEPEDFAVYYCQQWSSNPPTFGQGTKLEIK",
    "result-type": "pKd",
    "assay-value": 8.25
  },
  {
    "binder": "2E6-HLD-1 (antibody, V domains shown, Humanized 2E6 tested as IgG; also called Humanized HLD-1) VH: QVQLVQSGAEVKKPGASVKVSCKASGYTFTSYWMHWMRQAPGQGLEWIGRIDPNSGTTKYNVNFKTRATLTVDKSTSTAYMELSSLRSEDTAVYYCARLGHYGNLYAMDYWGQGTLVT VL: EIVLTQSPATLSLSPGERATLSCSASSSVSYMHWYQQKPGQAPRRWIYDTSKLASGVPARFSGSGSGTDYTLTISSLEPEDFAVYYCQQWSSNPPTFGQGTKLEIKR",
    "result-type": "pKd",
    "assay-value": 7.64
  },
  {
    "binder": "ch2E6 (antibody, V domains shown, also called chimeric 2E6) VH: QVQLQQPGAELVKPGASVKLSCTASGYTFTSYWMHWMKQRPGRGLEWIGRIDPNSGTTKYNVNFKTKATLTVDKPSSTAYMHLSSLTSEDSAVYYCARLGHYGNLYAMDYWGQGTSVT VL: QIVLTQSPAIMSASPGEKVTMTCSASSSVSYMHWYQQKSGTSPKRWIYDTSKLASGVPTRFSGSGSGTSYSLTISSMDTEDAATYYCQQWSSNPPTFGAGTKLELK",
    "result-type": "pKd",
    "assay-value": 7.25
  }
]

Next:
Sample 8D9 (antibody, V domains shown) VH: QVQLVQSGAEVKKPGASVKVSCKASGYTFTSYWMHWMRQAPGQGLEWIGRIDPNSGTTKYNVNFKTRATLTVDKSTSTAYMELSSLRSEDTAVYYCARLGHYGNLYAKDYWGQGTLVT VL: EIVLTQSPATLSLSPGERATLSCSASSSVSYIHWYQQKPGQAPRRWIYDTSKLASGVPARFSGSGSGTDYTLTISSLEPEDFAVYYCQQWSSNPPTFGQGTKLEIK — what was its pKd?
8.19

Where do the numbers come from? From patent US20180179273A1.
